- assay notes: DPPH radical scavenging assay
- Assay type: biochemical
- run conditions: 0.03 mg/mL, 30 min
# inhibition >= 70% gives rule met, anything below gives rule not met

Some entries whose results are on file:
Task: Exam item: decide whether the reported inhibition for C=CCNC(=[Se])NC(=O)c1cccs1 [Compound 2.II] is at least 70%.
Result: rule met

Task: Exam item: decide whether the reported inhibition for O=C1O[C@H]([C@@H](O)CO)C(O)=C1O [Asc. Acid, ascorbic acid, reference compound] is at least 70%.
Result: rule met

Task: Exam item: decide whether the reported inhibition for C=CCNC(=[Se])NC(=O)c1cccc(C(=O)NC(=[Se])NCC=C)c1 [Compound 10.II] is at least 70%.
Result: rule met

Now examine the next entry.
Task: Exam item: decide whether the reported inhibition for C#CCNC(=[Se])NC(=O)/C=C/c1ccco1 [Compound 3.III] is at least 70%.
Result: rule not met

The reported numbers originate from paper PMC10376326.
